Biological target: hEXOG-R314A (human, UniProt Q9Y2C4 59-368, R314A;del2-58)
Experiment: EMSA; 20 mM EDTA; apparent Kd; EK140: 20 mM HEPES pH 7.5, 140 mM KCl, 1 mM TCEP, 5% glycerol; plus 20 mM EDTA for anisotropy and EMSA (gel at 4 C, 0.5x TBE with 20 mM EDTA); ITC in EK140 at 20 C
Conditions: protein: recombinant; tags: C-terminal His-tag; chain copies: 2; label: 5'-32P; 10 bp duplex
pKd: −log10 of the molar value.

binder: 10 bp dsDNA, 5'-32P (dsDNA, 5'-phosphate (32P)) DNA 1: CTGACGTGCG DNA 2: CGCACGTCAG
pKd: 7.58
